system: SW-620 colon; assay: NCI tumour cell line growth inhibition, 48 h
metric name: TGI

[
  {
    "compound": "CCOC(=O)c1ccc2[nH]c(-c3ccc(S(=O)(=O)F)cc3)cc(=O)c2c1",
    "metric name": "TGI",
    "experimental value": "> 100 µM"
  },
  {
    "compound": "O=c1sc2c(s1)SSSSS2",
    "metric name": "TGI",
    "experimental value": "> 50 µM"
  },
  {
    "compound": "O=[N+]([O-])c1ccc(S(=O)(=O)Cc2ccccc2)c([N+](=O)[O-])c1",
    "metric name": "TGI",
    "experimental value": "20.1 µM"
  },
  {
    "compound": "COc1ccc(C(=O)c2cc(OC)c(OC)c(OC)c2)cc1",
    "metric name": "TGI",
    "experimental value": "> 100 µM"
  },
  {
    "compound": "O=C(O)c1ccccc1NC(c1ccccc1)c1ccc2cccnc2c1O (stereo not drawn)",
    "metric name": "TGI",
    "experimental value": "46.4 µM"
  },
  {
    "compound": "COc1ccccc1/C=C(\\C#N)c1ccccc1",
    "metric name": "TGI",
    "experimental value": "> 100 µM"
  },
  {
    "compound": "O=C(/C=C/c1ccc(OCCCOc2ccc(/C=C/C(=O)c3ccccc3)cc2)cc1)c1ccccc1",
    "metric name": "TGI",
    "experimental value": "> 100 µM"
  },
  {
    "compound": "FC(F)(F)c1nc(N2CCCC2)ncc1-c1nnnn1-c1ccc(Cl)cc1",
    "metric name": "TGI",
    "experimental value": "> 100 µM"
  }
]

Origin of the recorded values: PubChem BioAssay (NCI)
